Assay: Inhibition of Tel-fused KDR expressed in mouse BAF3 cells
pIC50: −log10 of the molar value.
Kind request: treat 7 as inclusive, so pIC50 at 7 or higher is Criterion met, anything lower is Criterion not met.

Query: Please indicate if the recorded pIC50 for Cc1cccc(C(=O)Nc2ccc(C)c(Nc3nc4ccccc4n3-c3cc(N)ncn3)c2)c1 meets or exceeds 7.
Reply: Criterion not met

====

Assay: Inhibition of Tel-fused KDR expressed in mouse BAF3 cells
test_readout: IC50 (nM)
State just the number; it will be interpreted in nM.

Query: Identify IC50 associated with the compound Cc1ccc(NC(=O)c2cccc(C(F)(F)F)c2)cc1Nc1nc2ccccc2n1-c1cc(Cl)ncn1
Reply: 9070

Query: Identify IC50 associated with the compound Cc1ccc(C(=O)Nc2cccc(C(F)(F)F)c2)cc1Nc1nc2ccccc2n1-c1cc(NCCN2CCN(C)CC2)ncn1
Reply: 185

Query: Identify IC50 associated with the compound Cc1ccc(C(=O)Nc2cccc(C(F)(F)F)c2)cc1Nc1nc2ccccc2n1-c1cc(NCCCCN(C)C)ncn1
Reply: 249

Query: Identify IC50 associated with the compound CCN(CC)CCCCNc1cc(-n2c(Nc3cc(C(=O)Nc4cccc(C)c4)ccc3C)nc3ccccc32)ncn1
Reply: 1360

Query: Identify IC50 associated with the compound Cc1ccc(NC(=O)c2ccc(C(C)(C)C)s2)cc1Nc1nc2ccccc2n1-c1cc(N)ncn1
Reply: 4

---
Query: Identify IC50 associated with the compound Cc1ccc(C(=O)Nc2cccc(C(C)(C)C)c2)cc1Nc1nc2ccccc2n1-c1cc(N)ncn1
Reply: 52

Query: Identify IC50 associated with the compound Cc1ccc(C(=O)Nc2cccc(C(F)(F)F)c2)cc1Nc1nc2ccccc2n1-c1ncnc(N)c1C
Reply: 8180

Query: Identify IC50 associated with the compound Cc1cccc(NC(=O)c2ccc(C)c(Nc3nc4ccccc4n3-c3cc(NCCN4CCN(C)CC4)ncn3)c2)c1
Reply: 2090

Query: Identify IC50 associated with the compound Cc1ccc(C(=O)Nc2cccc(C(F)(F)F)c2)cc1Nc1nc2ccccc2n1-c1cc(NCCC#N)ncn1
Reply: 245

====

Assay: Inhibition of Tel-fused SRC expressed in mouse BAF3 cells
Under this convention, true denotes IC50 strictly below 100 nM and false denotes IC50 at or above 100 nM.

Query: IC50 strictly < 100 nM for this compound? Cc1ccc(NC(=O)c2ccncc2C(C)(C)C)cc1Nc1nc2ccccc2n1-c1cc(N)ncn1
Reply: true

Query: IC50 strictly < 100 nM for this compound? CCN1CCN(Cc2ccc(C(=O)Nc3ccc(C)c(Nc4nc5ccccc5n4-c4cc(N)ncn4)c3)cc2Cl)CC1
Reply: true

Query: IC50 strictly < 100 nM for this compound? Cc1ccc(C(=O)Nc2cccc(C(F)(F)F)c2)cc1Nc1nc2ccccc2n1-c1cc(N)ncn1
Reply: false

Query: IC50 strictly < 100 nM for this compound? Cc1cccc(NC(=O)c2ccc(C)c(Nc3nc4ccccc4n3-c3cc(NCCCN4CCN(C)CC4)ncn3)c2)c1
Reply: false

Query: IC50 strictly < 100 nM for this compound? Cc1ccc(C(=O)Nc2cccc(C(F)(F)F)c2)cc1Nc1nc2ccccc2n1-c1ncnc(NCCCN2CCN(C)CC2)n1
Reply: false

Query: IC50 strictly < 100 nM for this compound? Cc1ccc(NC(=O)c2cccc(C(F)(F)F)c2)cc1Nc1nc2ccccc2n1-c1cc(NCCO)ncn1
Reply: false

Query: IC50 strictly < 100 nM for this compound? Cc1cccc(C(=O)Nc2ccc(C)c(Nc3nc4ccccc4n3-c3cc(N)ncn3)c2)c1
Reply: false

Query: IC50 strictly < 100 nM for this compound? CCN(CC)CCCCNc1cc(-n2c(Nc3cc(C(=O)Nc4cccc(C)c4)ccc3C)nc3ccccc32)ncn1
Reply: false

---
Query: IC50 strictly < 100 nM for this compound? Cc1ccc(C(=O)Nc2cccc(C(C)(C)C)c2)cc1Nc1nc2ccccc2n1-c1cc(N)ncn1
Reply: false

Query: IC50 strictly < 100 nM for this compound? Cc1ccc(C(=O)Nc2cccc(C(C)C)c2)cc1Nc1nc2ccccc2n1-c1cc(N)ncn1
Reply: true

Query: IC50 strictly < 100 nM for this compound? Cc1cc(NC(=O)c2ccc(C)c(Nc3nc4ccccc4n3-c3cc(N)ncn3)c2)ccn1
Reply: false
